Quick reference for Kd among some binders
# experimentalSystem: feline FcRn complex (FcRn-α subunit and β-microglobulin), biotin labeled (feline)
# procedureSummary: SPR, pH 6
Answer in nM, number only, no unit symbol.

Sample answers from the record:
| binder | Kd, nM |
| --- | --- |
| feline IgG1a Q311W/L314K (antibody, part only; not given: Variable domains, not shown: another chain or arm of the molecule) constant: ASTTAPSVFPLAPSCGTTSGATVALACLVLGYFPEPVTVSWNSGALTSGVHTFPAVLQASGLYSLSSMVTVPSSRWLSDTFTCNVAHPPSNTKVDKTVRKTDHPPGPKPCDCPKCPPPEMLGGPSIFIFPPKPKDTLSISRTPEVTCLVVDLGPDDSDVQITWFVDNTQVYTAKTSPREEQFNSTYRVVSVLPILHWDWKKGKEFKCKVNSKSLPSPIERTISKAKGQPHEPQVYVLPPAQEELSRNKVSVTCLIKSFHPPDIAVEWEITGQPEPENNYRTTPPQLDSDGTYFVYSKLSVDRSHWQRGNTYTCSVSHEALHSHHTQKSLTQSPGK | 3.47 |
| feline IgG1a S252Y/S434Y (antibody, part only; not given: Variable domains, not shown: another chain or arm of the molecule) constant: ASTTAPSVFPLAPSCGTTSGATVALACLVLGYFPEPVTVSWNSGALTSGVHTFPAVLQASGLYSLSSMVTVPSSRWLSDTFTCNVAHPPSNTKVDKTVRKTDHPPGPKPCDCPKCPPPEMLGGPSIFIFPPKPKDTLYISRTPEVTCLVVDLGPDDSDVQITWFVDNTQVYTAKTSPREEQFNSTYRVVSVLPILHQDWLKGKEFKCKVNSKSLPSPIERTISKAKGQPHEPQVYVLPPAQEELSRNKVSVTCLIKSFHPPDIAVEWEITGQPEPENNYRTTPPQLDSDGTYFVYSKLSVDRSHWQRGNTYTCSVSHEALHYHHTQKSLTQSPGK | 116 |
| feline IgG1a S254A (antibody, part only; not given: Variable domains, not shown: another chain or arm of the molecule) constant: ASTTAPSVFPLAPSCGTTSGATVALACLVLGYFPEPVTVSWNSGALTSGVHTFPAVLQASGLYSLSSMVTVPSSRWLSDTFTCNVAHPPSNTKVDKTVRKTDHPPGPKPCDCPKCPPPEMLGGPSIFIFPPKPKDTLSIARTPEVTCLVVDLGPDDSDVQITWFVDNTQVYTAKTSPREEQFNSTYRVVSVLPILHQDWLKGKEFKCKVNSKSLPSPIERTISKAKGQPHEPQVYVLPPAQEELSRNKVSVTCLIKSFHPPDIAVEWEITGQPEPENNYRTTPPQLDSDGTYFVYSKLSVDRSHWQRGNTYTCSVSHEALHSHHTQKSLTQSPGK | 53 |

# evaluate next
Exercise: Which Kd value belongs to feline IgG1a T256D (antibody, part only; not given: Variable domains, not shown: another chain or arm of the molecule) constant: ASTTAPSVFPLAPSCGTTSGATVALACLVLGYFPEPVTVSWNSGALTSGVHTFPAVLQASGLYSLSSMVTVPSSRWLSDTFTCNVAHPPSNTKVDKTVRKTDHPPGPKPCDCPKCPPPEMLGGPSIFIFPPKPKDTLSISRDPEVTCLVVDLGPDDSDVQITWFVDNTQVYTAKTSPREEQFNSTYRVVSVLPILHQDWLKGKEFKCKVNSKSLPSPIERTISKAKGQPHEPQVYVLPPAQEELSRNKVSVTCLIKSFHPPDIAVEWEITGQPEPENNYRTTPPQLDSDGTYFVYSKLSVDRSHWQRGNTYTCSVSHEALHSHHTQKSLTQSPGK ?
Key: 244
